Let's look at some compounds and their measured mitoOX (composite Z-score).
Test system: mtOXPHOS transcripts
Type: cell-based, mouse
Conditions: Conc 20 μM; normalized score vs mock-treated (DMSO) wells

compound	measurement target	mitoOX (composite Z-score)
CC(C)(C#N)O[C@@H]1O[C@H](CO)[C@@H](O)[C@H](O)[C@H]1O	mtOXPHOS transcripts	−1.232
COc1ccc2c(c1)C1(C)CCC(=O)CC1CC2 (centres unmarked)	mtOXPHOS transcripts	0.061
COC(=O)C[C@H]1C(C)(C)C2(O)OC34CC2C(=O)[C@]1(C)C3CC[C@]1(C)C4=CC(=O)O[C@H]1c1ccoc1 (stereo partly drawn) [8beta-hydroxycarapin, 3,8-hemiacetal]	mtOXPHOS transcripts	0.789
COc1ccc(/C=C/C(=O)O)cc1OC	mtOXPHOS transcripts	−0.885
C/C1=C\CC(C)(C)/C=C/CC2(C)OC2CC1 (centres unmarked)	mtOXPHOS transcripts	−1.021
OC[C@@H](O)[C@@H](OC1O[C@H](CO)[C@@H](O)[C@H](O)[C@H]1O)[C@H](O)[C@@H](O)CO (some centres unmarked) [glucitol-4-gucopyanoside]	mtOXPHOS transcripts	−1.006
O=c1c(O)cccc2c([C@H]3Oc4cc(O)cc(O)c4C[C@H]3O)cc(O)c(O)c12	mtOXPHOS transcripts	−0.333
C=C1C2CC[C@@]3(C)[C@H](c4ccoc4)OC(=O)C[C@]13O[C@H]1CC(=O)C(C)(C)[C@H](C(OC(C)=O)C(=O)OC)[C@@]21C (some centres unmarked)	mtOXPHOS transcripts	1.272

====

Tested on: OXPHOS gene expression
Assay type: cell-based, mouse
Conditions: composite Z-score vs DMSO; Conc 20 μM
Where a SMILES comes first, the peptide text is derived from it.
endpoint: GE-HTS

compound	endpoint	result
C[C@H]1CC[C@]2(NC1)O[C@H]1C[C@H]3[C@@H]4CC[C@H]5C[C@@H](O)CC[C@]5(C)[C@H]4CC[C@]3(C)[C@H]1[C@@H]2C	GE-HTS	−1.375
CC(=O)O[C@H]1CC[C@@]2(C)C(=CC[C@H]3[C@@H]4CC[C@H]([C@H](C)CCCC(C)C)[C@@]4(C)CC[C@@H]32)C1 [cholesteryl acetate]	GE-HTS	0.228
O=C1CC[C@]23/C=C/C(=O)NCCCCNCCCNC(=O)/C=C/c4ccc(c2c4)O[C@@H]3C1	GE-HTS	−0.945
C[C@H]1CC[C@]2(NC1)O[C@H]1C[C@H]3[C@@H]4CC[C@H]5C[C@@H](O[C@@H]6O[C@H](CO)[C@H](O[C@@H]7O[C@H](CO)[C@@H](O)[C@H](O[C@@H]8OC[C@@H](O)[C@H](O)[C@H]8O)[C@H]7O[C@@H]7O[C@H](CO)[C@@H](O)[C@H](O)[C@H]7O)[C@H](O)[C@H]6O)CC[C@]5(C)[C@H]4CC[C@]3(C)[C@H]1[C@@H]2C	GE-HTS	−2.151
CC(C)C[C@H](N)C(=O)N[C@@H](C)C(=O)O [L-leucyl-L-alanine] (H-Leu-Ala-OH)	GE-HTS	0.365

====

Tested on: cytochrome c
Format: cell-based, mouse
Conditions: normalized composite Z-score vs mock-treated (DMSO) wells; Conc 20 μM
If the reported cyt c equals or exceeds 0.3, assign YES. If not, assign NO.

molecule	discrete label
COc1c(CC(=O)c2cc3c(cc2O)OC(C)(C)C(O)C3)ccc2c1C=CC(C)(C)O2 (stereo not drawn) [dihydromunduletone]	NO
C=C/C(C)=C\CC1C(C)(O)CCC2C(C)(C)CCCC21C (stereo not drawn) [abienol]	NO
Cc1cc(OC(=O)c2c(C)cc(OC(=O)c3c(C)cc(O)cc3O)cc2O)cc(O)c1C(=O)O [gyrophoric acid]	NO
COc1ccc2c(=O)c(OC)c(-c3ccccc3)oc2c1 [3,7-dimethoxyflavone]	YES
COc1ccc(C(=O)c2ccc(O)cc2)c(O)c1O [2,3,4′-trihydroxy-4-methoxybenzophenone]	YES
CC(=O)C[C@H]1CCCCN1 [pelletierine]	YES
C=C1CC[C@H]2O[C@]2(C)CC[C@@H]2[C@@H]1CC2(C)C [carylophyllene oxide]	YES
C#CCCCCCCCCCCCC(O)CC(O)CO (stereo not drawn) [avocadyne]	YES
Nc1ccccc1C(=O)CC(N)C(=O)O (stereo not drawn) [kynurenine]	NO
C[C@@H]1CC[C@@]23CCC4(C)[C@@](C=CC5[C@@]6(C)CC[C@H](O)C(C)(C)C6CC[C@]54C)(OC2=O)C3[C@H]1C (stereo partly drawn) [dehydro (11,12)ursolic acid lactone]	NO
O=C1C[C@@H](c2ccc(O)cc2)Oc2cc(O)ccc21 [liquiritigenin]	YES
CC(=O)Oc1ccc(/C=C/c2cc(OC(C)=O)cc(OC(C)=O)c2)cc1 [triacetylresveratrol]	YES
CC1(C)C2CC(=O)[C@]3(C)C(CC[C@@]4(C)[C@H](c5ccoc5)OC(=O)C5OC543)[C@@]2(C)[C@@H](O)C[C@H]1O (stereo partly drawn) [1,3-dideacetyl-7-deacetoxy-7-oxokhivorin]	NO
C=C1CCC=C(C)C(=O)CC2C(C)CC12 (stereo not drawn) [15-norcaryophyllen-3-one]	YES
COc1cc(C)c(C(=O)O)c(O)c1 [everninic acid]	NO

====

Tested on: reactive oxygen species
Assay type: cell-based, mouse

compound	ROS
O=C1C(O)=C(O)C(=O)C(O)=C1O [tetrahydroxy-1,4-quinone]	0.667
C[C@]12CC[C@H]3C(=CCc4cc(O)ccc43)[C@@H]1CCC2=O	0.259
Oc1cccc2cccnc12	0.684

====

Test system: mtOXPHOS transcripts
Format: cell-based, mouse
Conditions: Conc 20 μM; normalized score vs mock-treated (DMSO) wells

compound	mitoOX (composite Z-score)
COc1cc(O)c2c(=O)cc(-c3ccc(O)cc3)oc2c1	0.389
CO[C@H]1C[C@H](O[C@H]2CC[C@]3(C=O)[C@H]4CC[C@]5(C)[C@@H](C6=CC(=O)OC6)CC[C@]5(O)[C@@H]4CC[C@]3(O)C2)O[C@H](C)[C@H]1O	−0.464
C=CC(C)(O)CCC=C(C)C (single isomer, unassigned; (+)) [(+)-linalool]	−0.342
COc1ccccc1-c1cc(=O)c2cccc(OC)c2o1	−0.811
Oc1ccc2c(c1)OC[C@H]1c3cc4c(cc3O[C@@H]21)OCO4	−1.049
CC(C)(O)CC[C@@H](O)[C@](C)(O)[C@H]1CC[C@@]2(O)C3=CC(=O)[C@@H]4C[C@@H](O)[C@@H](O)C[C@]4(C)[C@H]3CC[C@]12C	0.062
CC1CCC(C(C)C)C(OC(=O)c2ccccc2)C1 (centres unmarked) [menthyl benzoate]	−0.336
COc1ccc(-c2oc3cc(O[C@@H]4O[C@H](CO)[C@@H](O)[C@H](O)[C@H]4O)c(OC)c(O)c3c(=O)c2OC)cc1O	0.657
COc1ccc(-c2cc(=O)c3c(O)cc(O[C@H]4O[C@H](CO[C@@H]5O[C@@H](C)[C@H](O)[C@@H](O)[C@H]5O)[C@@H](O)[C@H](O)[C@H]4O)cc3o2)cc1 [buddleoflavonoloside]	0.017
C=C[C@@](C)(O)CC[C@H]1C(=C)C[C@H](O)[C@H]2C(C)(C)CCC[C@]12C	−0.552
COc1ccc(-c2c(OC)c3c(OC)c4c(cc3oc2=O)OC(C)(C)C=C4)cc1 [robustic acid methyl ether, reference compound]	−0.223
CC(C)CCC[C@@H](C)C1CC[C@H]2[C@@H]3CCC4CC(=O)CC[C@]4(C)[C@H]3CC[C@]12C (some centres unmarked)	0.214
CC(=O)O[C@@H]1CC2C(C)(C)[C@H](O)C=C[C@]2(C)C2CC[C@]3(C)C(=CC(=O)O[C@H]3c3ccoc3)[C@@]21C (stereo partly drawn) [3-alpha-hydroxydeoxygedinin]	−0.939
CCOc1ccc(C(=O)C2=C(O)C(OC)C(O)(OC)C=C2)cc1 (centres unmarked)	−1.568

====

Test system: nuOXPHOS transcripts
Assay type: cell-based, mouse
Conditions: composite Z-score vs DMSO wells; Conc 20 μM
Class membership depends on nucOX alone; the intervals are lo = under -0.5, mid = from -0.5 up to 0.03, hi = 0.03 and over

compound	discrete label
CNCCc1ccccn1	mid
CC(=O)Nc1ccc(OC(=O)c2ccccc2O)cc1	hi
NCCCC(=O)O	hi
O=C(O)c1ccc(S(=O)(=O)N(Cl)Cl)cc1	hi
CC(NCCC(c1ccccc1)c1ccccc1)c1ccccc1 (stereo not shown)	lo
O=C1C(O)=C(O)C(=O)C(O)=C1O	mid
CC(=O)O[C@H](CC(=O)[O-])C[N+](C)(C)C	lo
O=C(O)CN(CC(=O)O)Cc1cc2c(cc1O)Oc1cc(O)c(CN(CC(=O)O)CC(=O)O)cc1C21OC(=O)c2ccccc21	mid
Oc1c(Cl)cc(Cl)cc1Sc1cc(Cl)cc(Cl)c1O	lo
CCCCNc1ccc(C(=O)OCCN(C)C)cc1	mid

Source listed as patent US20090143279A1.
